Tested on: L1210 tumour cells
Assay: L1210 murine leukaemia cell culture, growth inhibition over 70 hours
Assay type: cell-based
Details: Mus musculus; murine L1210 leukaemia cells, 70 hours, counted cell number reduced by 50%; read-out: ID50 (the source's name)
MEASUREMENT_NAME: IC50 (nM)
Return type: number; implicit unit nM.

What value of IC50 has been recorded for this entry: CS(=O)(=O)Nc1ccc(Nc2c3ccccc3nc3ccccc23)cc1 [Compound 17, reference compound] 35

====

As shown below, each of these compounds has a reported chromatographic logP value.
Assay: Reversed-phase partition chromatography (Rm)
Assay type: physicochemical
Conditions: lipophilic-hydrophilic balance, linearly related to 1-octanol/water partition coefficients
Provide a numeric answer; units are not to be included.

| SMILES_TEXT | REPORTED |
| --- | --- |
| COc1cc(NP(=O)(OC)OC)ccc1Nc1c2ccccc2nc2c(OC)cccc12 | 0.47 |
| COP(=O)(Nc1ccc(Nc2c3ccccc3nc3cc(Cl)ccc23)cc1)OC | 0.46 |
| COP(=O)(Nc1ccc(Nc2c3ccccc3nc3ccccc23)cc1)OC | 0.31 |
| COP(=O)(Nc1ccc(Nc2c3ccccc3nc3c(C)cccc23)cc1)OC | 0.46 |

What value of chromatographic logP has been recorded for this entry: `COc1cccc2c(Nc3ccc(NP(=O)(OC)OC)cc3)c3ccccc3nc12` 0.33

Entry to check: `COP(=O)(Nc1ccc(Nc2c3ccccc3nc3cc(Br)ccc23)cc1)OC` 0.47

Entry to check: `COc1cc(NP(=O)(OC)OC)ccc1Nc1c2ccccc2nc2cc(Cl)ccc12` 0.61

Entry to check: `COP(=O)(Nc1ccc(Nc2c3ccccc3nc3cc([N+](=O)[O-])ccc23)cc1)OC` 0.14

Entry to check: `COP(=O)(Nc1ccc(Nc2c3ccccc3nc3cc(C)ccc23)cc1)OC` 0.49
